# Tested on: SR
# assay-explanation: NCI one-dose screening, leukemia SR
# Format: cell-based, human
# conditions-used: 10 μM
Rule: Growth Percent SR of 70% or more gives yes (1); anything lower gives no (0).

Check the entry O=C1c2ccccc2C(=O)c2c1ccc1nsnc21 : does Growth Percent SR equal or exceed 70%?
no (0)

Next: Cc1cccc(C)c1Sc1cc2c(c3nsnc13)C(=O)c1ccccc1C2=O
no (0)

Now the compound O=C1c2ccccc2C(=O)c2c1cc(Nc1ccc(Cl)cc1)c1nsnc21
no (0)

Check O=C1c2ccccc2C(=O)c2c1cc(Sc1ccc(F)cc1F)c1nsnc21 too.
no (0)

Repeat with O=C1c2ccccc2C(=O)c2c1cc(Sc1ccccc1)c1nsnc21
yes (1)

Now the compound COc1cccc(Sc2cc3c(c4nsnc24)C(=O)c2ccccc2C3=O)c1
no (0)

Query COc1ccc(Sc2cc3c(c4nsnc24)C(=O)c2ccccc2C3=O)cc1 next
yes (1)

Then O=C1c2ccccc2C(=O)c2c1cc(Sc1ccccn1)c1nsnc21 ?
no (0)

----------
For each record, write down the corresponding Growth Percent (10 μM).
# Tested on: M14
# assay-explanation: NCI one-dose screening, melanoma M14
# Format: cell-based, human
# conditions-used: M14, 10 μM
State the answer as a number, implicitly in %.

Report Growth Percent (10 μM) for Cc1ccc(Nc2cc3c(c4nsnc24)C(=O)c2ccccc2C3=O)cc1 tested on M14.
76.72

Also need CN(C)CCNc1cc2c(c3nsnc13)C(=O)c1ccccc1C2=O , thanks.
−96.08

What do we get for CC(C)Sc1cc2c(c3nsnc13)C(=O)c1ccccc1C2=O ?
−31.54

Also O=C1c2ccccc2C(=O)c2c1cc(N1CCCC1)c1nsnc21 ?
94.61

----------
Kindly state melting point for each of the entries shown.

Reported melting point for O=C1c2ccccc2C(=O)c2c1cc(S(=O)(=O)[O-])c1nsnc21.[Na+] : what is it?
293 to 295 °C

One more compound: O=C1c2ccccc2C(=O)c2c1cc(SCc1ccc(Cl)cc1)c1nsnc21
261 to 262 °C

Moving on to the next compound: CC(C)Sc1cc2c(c3nsnc13)C(=O)c1ccccc1C2=O
193 to 194 °C

Consider next the compound O=C1c2ccccc2C(=O)c2c1cc(N1CCOCC1)c1nsnc21 in the same way.
259 to 260 °C

What would you report for Cc1ccccc1Nc1cc2c(c3nsnc13)C(=O)c1ccccc1C2=O ?
177 to 178 °C

----------
# Tested on: PC-3
# assay-explanation: NCI one-dose screening, prostate cancer PC-3
# Format: cell-based, human
# conditions-used: 10 μM
property-measured: Growth Percent PC-3 (%)
Just the number please, in %, no unit attached.

State the recorded Growth Percent PC-3 for this entry: O=C1c2ccccc2C(=O)c2c1cc(N1CCSCC1)c1nsnc21 [C15]
56.99

Then O=C1c2ccccc2C(=O)c2c1cc(N1CCOCC1)c1nsnc21 [C10] ?
56.59

Next up: O=C1c2ccccc2C(=O)c2c1cc(Nc1ccc(Cl)cc1)c1nsnc21 [C60]
42.48

Another: O=C1c2ccccc2C(=O)c2c1cc(Sc1ccccn1)c1nsnc21 [C58]
14.77

Try CSc1ccc(Sc2cc3c(c4nsnc24)C(=O)c2ccccc2C3=O)cc1 [C43] next.
78.37

O=C1c2ccccc2C(=O)c2c1cc(Sc1ccccc1)c1nsnc21 [C19] ?
87.32

Same read-out for O=C1c2ccccc2C(=O)c2c1cc(Sc1ccc(F)cc1F)c1nsnc21 [C39] ?
−9.72

Further, for O=C1c2ccccc2C(=O)c2c1cc(Sc1ccc(Cl)cc1)c1nsnc21 [C22] ?
86.94

# iterate: O=C1c2ccccc2C(=O)c2c1cc(Cl)c1nsnc21 [C2]
23.54

Request: Cc1ccc(Sc2cc3c(c4nsnc24)C(=O)c2ccccc2C3=O)c(C)c1 [C25]
76.11
